# Tested on: HCC827 cells
# Experiment: Inhibition of cell proliferation, HCC827 (CCK-8, 72 h)
# Type: cell-based
# Measurement context: 72 h incubation
Measured endpoint: IC50

# return IC50 for CN(C)C/C=C/C(=O)N1CCOc2c1ccc1ncnc(Nc3ccc(OCc4cccc(C(F)(F)F)c4)cc3)c21 , test system: HCC827 cells > 5 µM

----------
# Tested target: HER2 kinase (Homo sapiens (Human), UniProt P04626)
# Sequence (P04626 23-1255): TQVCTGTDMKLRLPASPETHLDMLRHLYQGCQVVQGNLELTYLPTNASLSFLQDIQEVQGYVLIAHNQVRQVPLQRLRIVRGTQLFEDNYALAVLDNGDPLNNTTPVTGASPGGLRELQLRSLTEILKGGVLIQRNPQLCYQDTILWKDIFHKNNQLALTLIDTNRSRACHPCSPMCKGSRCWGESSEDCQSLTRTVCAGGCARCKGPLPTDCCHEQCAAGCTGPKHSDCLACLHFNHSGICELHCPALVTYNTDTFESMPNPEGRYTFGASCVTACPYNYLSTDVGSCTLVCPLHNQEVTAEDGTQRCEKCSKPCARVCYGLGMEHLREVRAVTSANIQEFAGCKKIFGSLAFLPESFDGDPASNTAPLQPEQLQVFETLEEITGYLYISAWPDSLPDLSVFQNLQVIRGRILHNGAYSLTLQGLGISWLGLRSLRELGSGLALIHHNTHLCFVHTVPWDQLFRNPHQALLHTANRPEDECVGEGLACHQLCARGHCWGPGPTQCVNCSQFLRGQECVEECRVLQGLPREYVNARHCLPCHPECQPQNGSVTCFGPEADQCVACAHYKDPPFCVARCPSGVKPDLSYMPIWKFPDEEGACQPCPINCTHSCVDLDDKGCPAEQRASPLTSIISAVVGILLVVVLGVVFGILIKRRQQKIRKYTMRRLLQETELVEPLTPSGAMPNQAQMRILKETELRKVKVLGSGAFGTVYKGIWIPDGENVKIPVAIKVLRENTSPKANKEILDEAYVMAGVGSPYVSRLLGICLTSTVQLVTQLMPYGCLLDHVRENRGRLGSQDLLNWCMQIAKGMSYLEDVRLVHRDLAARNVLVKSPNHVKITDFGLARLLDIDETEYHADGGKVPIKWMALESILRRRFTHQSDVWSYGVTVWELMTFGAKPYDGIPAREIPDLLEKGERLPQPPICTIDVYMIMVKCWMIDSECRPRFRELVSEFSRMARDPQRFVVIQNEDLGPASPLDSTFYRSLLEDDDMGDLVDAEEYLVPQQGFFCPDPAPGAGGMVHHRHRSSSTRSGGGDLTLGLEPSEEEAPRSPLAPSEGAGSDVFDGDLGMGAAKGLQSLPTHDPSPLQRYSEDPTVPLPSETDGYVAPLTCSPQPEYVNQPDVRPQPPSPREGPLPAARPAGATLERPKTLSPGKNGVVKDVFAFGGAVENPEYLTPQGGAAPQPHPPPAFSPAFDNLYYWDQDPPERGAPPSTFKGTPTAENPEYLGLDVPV
Measured endpoint: IC50

Example results:
- Smiles code: "CN(C)C/C=C/C(=O)N1CCOc2c1ccc1ncnc(Nc3ccc(Oc4cccc(Cl)c4)cc3)c21"
  Test result: "≤ 50 nM"
- Smiles code: "O=C(/C=C/CNC1CCC1)N1CCOc2c1ccc1ncnc(Nc3ccc(OCc4ccccn4)c(Cl)c3)c21"
  Test result: "≤ 50 nM"
- Smiles code: "Cc1cc(Nc2ncnc3ccc4c(c23)OCCN4C(=O)/C=C/CN(C)C(C)C)ccc1Oc1ccn2ncnc2c1"
  Test result: "≤ 50 nM"
- Smiles code: "O=C(/C=C/CN1CCCCC1)N1CCOc2c1ccc1ncnc(Nc3ccc(Oc4ccn5ncnc5c4)c(Cl)c3)c21"
  Test result: "≤ 50 nM"
- Smiles code: "CN(C)C/C=C/C(=O)N1CCOc2c1ccc1ncnc(Nc3ccc(Oc4cc(F)ccc4F)cc3)c21"
  Test result: "≤ 50 nM"

Give IC50; test system HER2 kinase (Homo sapiens (Human), UniProt P04626); molecule C=CC(=O)N1CCOc2c1ccc1ncnc(Nc3ccc(Oc4cccc(F)c4)cc3)c21 ≤ 50 nM

Enter measured IC50, system HER2 kinase (Homo sapiens (Human), UniProt P04626), for the molecule shown: C=CC(=O)N1CCOc2c1ccc1ncnc(Nc3ccc(Oc4ccccc4)c(F)c3)c21 ≤ 50 nM
